I'd be grateful if you could share measured viability, T/C for these entries.
System: 616215-338-R-J1-PDC tumor spheroids, viability
Experiment: Anticancer human tumor 616215-338-R-J1-PDC patient-derived colon adenocarcinoma cell line growth inhibition [GQUAD]
Details: second compound 0.0316 µM; first compound 1 µM; active compounds read low; spheroids with HUVEC and MSC
Text: DNA G-quadruplex Stabilizer Agents in Combinations in Complex Spheroids A high-throughput screen of multi-cell type tumor spheroids was designed to identify active combinations of DNA G-quadruplex stabilizer agents and targeted small molecules. […] Compounds. […] If the clinical Cmax for an agent had not been determined, the highest concentration tested was 10 microM. […]
Numbers only, in %.

Please review the entries below; each comes with its answer.
- compound: "C=CC(=O)N1CCN(c2nc(=O)n(-c3c(C)ccnc3C(C)C)c3nc(-c4c(O)cccc4F)c(F)cc23)C(C)C1 (stereo not given) + CN(C)c1ccc(Nc2c3ccc(NC(=O)CCN4CCCC4)cc3nc3cc(NC(=O)CCN4CCCC4)ccc23)cc1"
  value-unit: "%"
  viability, T/C: 102
- compound: "O=C(NO)c1cnc(N2CCN(S(=O)(=O)c3ccc4ccccc4c3)CC2)nc1 + CN(C)c1ccc(Nc2c3ccc(NC(=O)CCN4CCCC4)cc3nc3cc(NC(=O)CCN4CCCC4)ccc23)cc1"
  value-unit: "%"
  viability, T/C: 1.08
- compound: "C#Cc1c(F)ccc2cc(O)cc(-c3ncc4c(N5CC6CCC(C5)N6)nc(OCC56CCCN5CC(F)C6)nc4c3F)c12 (stereo not given) + Cc1cnc(CNC(=O)c2c(=O)c3ccc(N4CCCN(C)CC4)nc3n3c2sc2ccccc23)cn1"
  value-unit: "%"
  viability, T/C: 67.6

For every record below, what is its viability, T/C?
1. COc1ncnc(C2CC2)c1-c1ncc2cnn(Cc3ccc(-c4nc(C(F)(F)F)cn4C(C)C)cc3)c2n1 + Cc1[nH]c2ccc(F)cc2c1-c1nc2c3cccnc3c3ncccc3c2[nH]1
2. CCCS(=O)(=O)Nc1ccc(F)c(C(=O)c2c[nH]c3ncc(-c4ccc(Cl)cc4)cc23)c1F + Cc1[nH]c2ccc(F)cc2c1-c1nc2c3cccnc3c3ncccc3c2[nH]1
3. O=C(c1cc(Cc2n[nH]c(=O)c3ccccc23)ccc1F)N1CCN(C(=O)C2CC2)CC1 + CN(C)c1ccc(Nc2c3ccc(NC(=O)CCN4CCCC4)cc3nc3cc(NC(=O)CCN4CCCC4)ccc23)cc1
4. C=CC(=O)N1CCN(c2nc(=O)n(-c3c(C)ccnc3C(C)C)c3nc(-c4c(O)cccc4F)c(F)cc23)C(C)C1 (stereo not given) + Cc1[nH]c2ccc(F)cc2c1-c1nc2c3cccnc3c3ncccc3c2[nH]1
5. C#Cc1c(F)ccc2cc(O)cc(-c3ncc4c(N5CC6CCC(C5)N6)nc(OCC56CCCN5CC(F)C6)nc4c3F)c12 (stereo not given) + Cc1[nH]c2ccc(F)cc2c1-c1nc2c3cccnc3c3ncccc3c2[nH]1
6. COc1cc(C2c3cc4c(cc3C(OC3OC5COC(C)OC5C(O)C3O)C3COC(=O)C23)OCO4)cc(OC)c1O (stereo not given) + Cc1[nH]c2ccc(F)cc2c1-c1nc2c3cccnc3c3ncccc3c2[nH]1
7. COc1cccc2c1C(=O)c1c(O)c3c(c(O)c1C2=O)CC(O)(C(=O)CO)CC3OC1CC(N)C(O)C(C)O1 (stereo not given) + CN(C)c1ccc(Nc2c3ccc(NC(=O)CCN4CCCC4)cc3nc3cc(NC(=O)CCN4CCCC4)ccc23)cc1

Solution:
1. 91.9
2. 99.1
3. 111
4. 104
5. 111
6. 41.6
7. 36.2

* * *

I'd be grateful if you could share measured viability, T/C for these entries.
tested on: 616215-338-R-J1-PDC tumor spheroids, viability; experiment: Anticancer human tumor 616215-338-R-J1-PDC cell line growth inhibition [GQUAD]; details: second compound 1 µM; first compound 0.0316 µM; active compounds read low; spheroids with HUVEC and MSC;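 further: spheroids exposed to agents for 7 days before readout; percent viability relative to DMSO vehicle control wells taken as 100%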

Please review the entries below; each comes with its answer.
- compound: "CC(C)n1c(=O)n(C)c2cnc3cc(F)c(-c4ccc(OCCCN5CCCCC5)nc4)cc3c21 + Cc1[nH]c2ccc(F)cc2c1-c1nc2c3cccnc3c3ncccc3c2[nH]1"
  viability, T/C: "99%"
- compound: "CC[C@@]1(O)C(=O)OCc2c1cc1n(c2=O)Cc2cc3c(CN(C)C)c(O)ccc3nc2-1 + CN(C)c1ccc(Nc2c3ccc(NC(=O)CCN4CCCC4)cc3nc3cc(NC(=O)CCN4CCCC4)ccc23)cc1"
  viability, T/C: "101%"

For every record below, what is its viability, T/C?
1. C=CCn1c(=O)c2cnc(Nc3ccc(N4CCN(C)CC4)cc3)nc2n1-c1cccc(C(C)(C)O)n1 + CN(C)c1ccc(Nc2c3ccc(NC(=O)CCN4CCCC4)cc3nc3cc(NC(=O)CCN4CCCC4)ccc23)cc1
2. Cn1ncnc1[C@H]1c2n[nH]c(=O)c3cc(F)cc(c23)N[C@@H]1c1ccc(F)cc1 + Cc1cnc(CNC(=O)c2c(=O)c3ccc(N4CCCN(C)CC4)nc3n3c2sc2ccccc23)cn1
3. O=C(NO)c1cnc(N2CCN(S(=O)(=O)c3ccc4ccccc4c3)CC2)nc1 + Cc1cnc(CNC(=O)c2c(=O)c3ccc(N4CCCN(C)CC4)nc3n3c2sc2ccccc23)cn1
4. CC1COCCN1c1cc(C2(O)CC3CCC(C2)O3)c2cnn(-c3ccn[nH]3)c2n1 (stereo unspecified) + Cc1[nH]c2ccc(F)cc2c1-c1nc2c3cccnc3c3ncccc3c2[nH]1
5. COc1ccc([C@@H](O)c2cc(-c3ncnc4cc(N5CCOCC5)ccc34)c(F)cc2Cl)nn1 + CN(C)c1ccc(Nc2c3ccc(NC(=O)CCN4CCCC4)cc3nc3cc(NC(=O)CCN4CCCC4)ccc23)cc1
6. Cc1[nH]c2ccccc2c1CCNCc1ccc(/C=C/C(=O)NO)cc1 + Cc1cnc(CNC(=O)c2c(=O)c3ccc(N4CCCN(C)CC4)nc3n3c2sc2ccccc23)cn1
7. O=C(c1cc(Cc2n[nH]c(=O)c3ccccc23)ccc1F)N1CCN(C(=O)C2CC2)CC1 + CN(C)c1ccc(Nc2c3ccc(NC(=O)CCN4CCCC4)cc3nc3cc(NC(=O)CCN4CCCC4)ccc23)cc1

Solution:
98.2%
44.1%
24.7%
99.5%
97.7%
23.2%
108%

For every record below, what is its viability, T/C?
1. CCCS(=O)(=O)Nc1ccc(F)c(C(=O)c2c[nH]c3ncc(-c4ccc(Cl)cc4)cc23)c1F + Cc1cnc(CNC(=O)c2c(=O)c3ccc(N4CCCN(C)CC4)nc3n3c2sc2ccccc23)cn1
2. CC1COCCN1c1cc(-c2ccnn2C)c2ccnc(-c3ccn[nH]3)c2n1 (stereo unspecified) + Cc1cnc(CNC(=O)c2c(=O)c3ccc(N4CCCN(C)CC4)nc3n3c2sc2ccccc23)cn1

Solution:
1. 31%
2. 30.6%

* * *

System: 616215-338-R-J1-PDC tumor spheroids, viability
Experiment: Anticancer human tumor 616215-338-R-J1-PDC cell line growth inhibition [GQUAD];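 further: spheroids exposed to agents for 7 days before readout; percent viability relative to DMSO vehicle control wells taken as 100%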
Settings: second compound 10 µM; first compound 0.0316 µM; active compounds read low; spheroids with HUVEC and MSC
Excerpt: DNA G-quadruplex Stabilizer Agents in Combinations in Complex Spheroids A high-throughput screen of multi-cell type tumor spheroids was designed to identify active combinations of DNA G-quadruplex stabilizer agents and targeted small molecules. […] Compounds. […] If the clinical Cmax for an agent had not been determined, the highest concentration tested was 10 microM. […]
# label = Fulfilled if viability, T/C < 40% else Not fulfilled

- compound: "CC1COCCN1c1cc(C2(O)CC3CCC(C2)O3)c2cnn(-c3ccn[nH]3)c2n1 (stereo not given) + CN(C)c1ccc(Nc2c3ccc(NC(=O)CCN4CCCC4)cc3nc3cc(NC(=O)CCN4CCCC4)ccc23)cc1"
  system: "616215-338-R-J1-PDC tumor spheroids, viability"
  cat: "Not fulfilled"
- compound: "CC1COCCN1c1cc(C2(S(C)(=N)=O)CC2)nc(-c2ccnc3[nH]ccc23)n1 (stereo not given) + Cc1[nH]c2ccc(F)cc2c1-c1nc2c3cccnc3c3ncccc3c2[nH]1"
  system: "616215-338-R-J1-PDC tumor spheroids, viability"
  cat: "Not fulfilled"
- compound: "Cc1[nH]c2ccccc2c1CCNCc1ccc(/C=C/C(=O)NO)cc1 + Cc1[nH]c2ccc(F)cc2c1-c1nc2c3cccnc3c3ncccc3c2[nH]1"
  system: "616215-338-R-J1-PDC tumor spheroids, viability"
  cat: "Not fulfilled"
- compound: "CC(C)(O)C1CCC(Nc2ccc3ncc(-c4cccc(C(F)(F)F)c4)n3n2)CC1 (stereo not given) + CN(C)c1ccc(Nc2c3ccc(NC(=O)CCN4CCCC4)cc3nc3cc(NC(=O)CCN4CCCC4)ccc23)cc1"
  system: "616215-338-R-J1-PDC tumor spheroids, viability"
  cat: "Not fulfilled"
- compound: "COc1cc(C2c3cc4c(cc3C(OC3OC5COC(C)OC5C(O)C3O)C3COC(=O)C23)OCO4)cc(OC)c1O (stereo not given) + Cc1cnc(CNC(=O)c2c(=O)c3ccc(N4CCCN(C)CC4)nc3n3c2sc2ccccc23)cn1"
  system: "616215-338-R-J1-PDC tumor spheroids, viability"
  cat: "Fulfilled"
- compound: "CC[C@@]1(O)C(=O)OCc2c1cc1n(c2=O)Cc2cc3c(CN(C)C)c(O)ccc3nc2-1 + CN(C)c1ccc(Nc2c3ccc(NC(=O)CCN4CCCC4)cc3nc3cc(NC(=O)CCN4CCCC4)ccc23)cc1"
  system: "616215-338-R-J1-PDC tumor spheroids, viability"
  cat: "Not fulfilled"
- compound: "CC(C)n1c(=O)n(C)c2cnc3cc(F)c(-c4ccc(OCCCN5CCCCC5)nc4)cc3c21 + Cc1[nH]c2ccc(F)cc2c1-c1nc2c3cccnc3c3ncccc3c2[nH]1"
  system: "616215-338-R-J1-PDC tumor spheroids, viability"
  cat: "Not fulfilled"
- compound: "COc1cc(C2c3cc4c(cc3C(OC3OC5COC(C)OC5C(O)C3O)C3COC(=O)C23)OCO4)cc(OC)c1O (stereo not given) + Cc1[nH]c2ccc(F)cc2c1-c1nc2c3cccnc3c3ncccc3c2[nH]1"
  system: "616215-338-R-J1-PDC tumor spheroids, viability"
  cat: "Not fulfilled"

Exercise: Strictly below 40%: is that where viability, T/C of CC1COCCN1c1cc(C2(S(C)(=N)=O)CC2)nc(-c2ccnc3[nH]ccc23)n1 (stereo not given) + Cc1cnc(CNC(=O)c2c(=O)c3ccc(N4CCCN(C)CC4)nc3n3c2sc2ccccc23)cn1 sits?
Solution: Fulfilled

Exercise: Strictly below 40%: is that where viability, T/C of CC(C)n1c(=O)n(C)c2cnc3cc(F)c(-c4ccc(OCCCN5CCCCC5)nc4)cc3c21 + CN(C)c1ccc(Nc2c3ccc(NC(=O)CCN4CCCC4)cc3nc3cc(NC(=O)CCN4CCCC4)ccc23)cc1 sits?
Solution: Not fulfilled

Exercise: Strictly below 40%: is that where viability, T/C of COc1ccc([C@@H](O)c2cc(-c3ncnc4cc(N5CCOCC5)ccc34)c(F)cc2Cl)nn1 + Cc1[nH]c2ccc(F)cc2c1-c1nc2c3cccnc3c3ncccc3c2[nH]1 sits?
Solution: Not fulfilled

Exercise: Strictly below 40%: is that where viability, T/C of CC1COCCN1c1cc(-c2ccnn2C)c2ccnc(-c3ccn[nH]3)c2n1 (stereo not given) + Cc1[nH]c2ccc(F)cc2c1-c1nc2c3cccnc3c3ncccc3c2[nH]1 sits?
Solution: Not fulfilled

Exercise: Strictly below 40%: is that where viability, T/C of CCCS(=O)(=O)Nc1ccc(F)c(C(=O)c2c[nH]c3ncc(-c4ccc(Cl)cc4)cc23)c1F + Cc1cnc(CNC(=O)c2c(=O)c3ccc(N4CCCN(C)CC4)nc3n3c2sc2ccccc23)cn1 sits?
Solution: Fulfilled

Exercise: Strictly below 40%: is that where viability, T/C of CCc1c2c(nc3ccc(O)cc13)-c1cc3c(c(=O)n1C2)COC(=O)[C@]3(O)CC + Cc1[nH]c2ccc(F)cc2c1-c1nc2c3cccnc3c3ncccc3c2[nH]1 sits?
Solution: Fulfilled

Exercise: Strictly below 40%: is that where viability, T/C of C=CC(=O)N1CCN(c2nc(=O)n(-c3c(C)ccnc3C(C)C)c3nc(-c4c(O)cccc4F)c(F)cc23)C(C)C1 (stereo not given) + Cc1cnc(CNC(=O)c2c(=O)c3ccc(N4CCCN(C)CC4)nc3n3c2sc2ccccc23)cn1 sits?
Solution: Fulfilled

Exercise: Strictly below 40%: is that where viability, T/C of C=CC(=O)N1CCN(c2nc(=O)n(-c3c(C)ccnc3C(C)C)c3nc(-c4c(O)cccc4F)c(F)cc23)C(C)C1 (stereo not given) + Cc1[nH]c2ccc(F)cc2c1-c1nc2c3cccnc3c3ncccc3c2[nH]1 sits?
Solution: Not fulfilled

Exercise: Strictly below 40%: is that where viability, T/C of O=C(c1cc(Cc2n[nH]c(=O)c3ccccc23)ccc1F)N1CCN(C(=O)C2CC2)CC1 + Cc1cnc(CNC(=O)c2c(=O)c3ccc(N4CCCN(C)CC4)nc3n3c2sc2ccccc23)cn1 sits?
Solution: Fulfilled

Exercise: Strictly below 40%: is that where viability, T/C of CC1COCCN1c1cc(C2(O)CC3CCC(C2)O3)c2cnn(-c3ccn[nH]3)c2n1 (stereo not given) + Cc1cnc(CNC(=O)c2c(=O)c3ccc(N4CCCN(C)CC4)nc3n3c2sc2ccccc23)cn1 sits?
Solution: Fulfilled

Exercise: Strictly below 40%: is that where viability, T/C of CC(=O)O[C@H]1C(=O)[C@@]2(C)[C@H]([C@H](OC(=O)c3ccccc3)[C@]3(O)C[C@H](OC(=O)[C@H](O)[C@@H](NC(=O)c4ccccc4)c4ccccc4)C(C)=C1C3(C)C)[C@]1(OC(C)=O)CO[C@@H]1C[C@@H]2O + Cc1[nH]c2ccc(F)cc2c1-c1nc2c3cccnc3c3ncccc3c2[nH]1 sits?
Solution: Fulfilled

Exercise: Strictly below 40%: is that where viability, T/C of CC[C@@]1(O)C(=O)OCc2c1cc1n(c2=O)Cc2cc3c(CN(C)C)c(O)ccc3nc2-1 + Cc1cnc(CNC(=O)c2c(=O)c3ccc(N4CCCN(C)CC4)nc3n3c2sc2ccccc23)cn1 sits?
Solution: Fulfilled
